Data origin, for the record: PubChem BioAssay AID2732

inhibition overview
Experiment: blockers of ER-stress CHOP reporter expression – cell-based, unfolded protein response, luciferase reporter, primary screen (AID 2732);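 note: 0% = tunicamycin plus vehicle and 100% = wells without tunicamycin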
Conditions: CHO-K1 CHOP-promoter luciferase, tunicamycin-induced, 15-18 h; at 10 µM; active compounds read high
The whole screen tested about 220,000 compounds, of which about 8,200 (3.7%) were called active. Only a selection was taken, and actives are over-represented in it overall.
Express it in %; write the number only.

Ask: Fill in: inhibition of CCOC(=O)c1sc2nc(C)[nH]c(=O)c2c1C is ___
Result: 3.38

Ask: Field request: inhibition | item: O=C(CC(NC(=O)c1ccccc1)c1ccccc1)Nc1ccc(F)c(F)c1 (stereo not given)
Result: 105

Ask: Dear colleague, I am looking for the recorded inhibition of the following compound: COc1ccccc1N(C)S(=O)(=O)c1ccc(C(=O)NC2CCCCCC2)cc1
Result: 19.2

Ask: Please look up its inhibition: Cc1nc2ccccc2cc1OCc1ccc(F)cc1
Result: 74.8

Ask: Would you mind telling me what inhibition value was observed for C/C(CC(=O)NC(C)c1ccccc1)=N\NC(N)=S (stereo not given) ?
Result: 0.93

Ask: Sample Cc1nc(Cl)c(C#N)c2c1CCCC2 — what was its inhibition?
Result: 18.3

Ask: So what does the record say about inhibition for COc1ccccc1OCC(=O)O/N=C(\N)c1ccccn1 ?
Result: -9.1

Ask: Would you mind telling me what inhibition value was observed for COc1ccc(N2CCN(c3ccc([N+](=O)[O-])nc3)CC2)cc1 ?
Result: 10.8

###

Assay: blockers of ER-stress CHOP reporter expression – cell-based, unfolded protein response, luciferase reporter, primary screen (AID 2732);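 note: 0% = tunicamycin plus vehicle and 100% = wells without tunicamycin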
Conditions: CHO-K1 CHOP-promoter luciferase, tunicamycin-induced, 15-18 h; at 10 µM; active compounds read high
The campaign covered roughly 220,000 compounds. About 8,200 (3.7%) were called active. What follows is part of a selection rich in actives, with near analogues and random picks from the rest.
Below, each of the compounds is paired with its reported inhibition value.
Give just the numeric value; % need not be written.

Ask: Please give the measured inhibition for this compound: CCOc1ccc(NS(=O)(=O)c2ccc(C)c(C(N)=O)c2)cc1
Result: 16.6

Ask: Fill in: inhibition of CCN(CC)CCCNC(=O)CCc1ccccc1 is ___
Result: 0.68

Ask: // query inhibition value for entry CC(C)(C)C(=O)NNC(=O)c1ccc(Oc2cc(Cl)cc(Cl)c2)o1
Result: 1.32

Ask: Would you kindly share the measured inhibition for CC12C(=O)N(c3ccccc3)C(=O)C1C(c1ccccc1)N1CCCN12 (stereo not given) ?
Result: 7.95

Ask: Fill blank: measured inhibition of the compound Cc1cc(OCCCCOc2ccc(C#N)cc2)ccc1[N+](=O)[O-] is ____.
Result: 32.1

Ask: Recorded inhibition for CC(=O)NC(C)c1nc2ccccc2n1Cc1ccccc1F (stereo not given) , please?
Result: -2.56

Ask: # lookup: inhibition of Cc1csc(/N=C/N(C)C)c1C#N
Result: 11.2

Ask: Param item = N#CNC1=NCN(CCc2ccccc2)CN1 ; retrieve measured inhibition.
Result: -32.6

Ask: Given the entry COc1ccccc1OCCC(=O)OCC(=O)NC(=O)NC(C)(C)C , report its measured inhibition.
Result: 44.9

Ask: // inhibition lookup, key: CC(C)(C)NC(=O)NC(=O)COC(=O)C1(C)CC1(Cl)Cl (stereo not given)
Result: 6.38

###

Assay: blockers of ER-stress CHOP reporter expression – cell-based, unfolded protein response, luciferase reporter, primary screen (AID 2732);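 note: 0% = tunicamycin plus vehicle and 100% = wells without tunicamycin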
Details: CHO-K1 CHOP-promoter luciferase, tunicamycin-induced, 15-18 h; at 10 µM
Out of some 220,000 compounds screened, about 8,200 (3.7%) were called active.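 Rule for the calls: active = compounds that reduced the stress-induced luciferase reporter signal by more than about 70% of percent inhibition (limit read from the data); inactive = the rest.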 What follows is part of a selection rich in actives, with near analogues and random picks from the rest.
Hello, when you answer, please use one of the following outcomes: active, inactive

See these solved cases before continuing.
Ask: Answer briefly: the call reported for O=C(CSc1nc2ccc([N+](=O)[O-])cc2[nH]1)c1ccc(Cl)cc1 in this assay.
Result: active

Ask: What outcome does the record of this test show for OC(COc1ccc2c(c1)CCC2)CN1CCN(c2cccc(Cl)c2)CC1 (stereo unspecified) ?
Result: inactive

Ask: What outcome does the record of this test show for COCCN(CCOC)S(=O)(=O)c1ccc(C(=O)Nc2nc3c(s2)CCc2ccccc2-3)cc1 ?
Result: active

Ask: Called result for C=CCN(CC=C)S(=O)(=O)c1ccc(C(=O)Nc2sc3c(c2C(N)=O)CCCCC3)cc1
Result: inactive

Ask: Called result for COc1ccc(CCNCC(O)Cn2ccc3ccccc32)cc1OC (stereo unspecified)
Result: inactive

Continuing:
Ask: Hi, sorry to bother you, what did the test record for CC(=O)Nc1ccc(C(=O)CSc2nc3ccc(C)cc3[nH]2)cc1 ?
Result: inactive

Ask: Each molecule tested received a call. Report the one for NNC(=O)c1ccc(COCC(F)(F)C(F)F)cc1 .
Result: inactive

Ask: What did the test return for COc1cccc(CNC(=O)Cc2csc(Nc3nc(=S)[nH]c4ccccc34)n2)c1 ?
Result: inactive

Ask: Recorded call for CSc1nc(C)nc(C2CC2)c1C#N ?
Result: inactive

Ask: Which outcome was entered for the molecule O=C(CS(=O)(=O)c1ccc(C(F)(F)F)cn1)NNC(=O)c1ccccc1 in this test?
Result: inactive

Ask: Status in this test for CN(C)C(=S)Nc1ccc(Br)cc1Cl ?
Result: inactive

###

Assay: blockers of ER-stress CHOP reporter expression – cell-based, unfolded protein response, luciferase reporter, primary screen (AID 2732);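 note: 0% = tunicamycin plus vehicle and 100% = wells without tunicamycin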
Conditions: CHO-K1 CHOP-promoter luciferase, tunicamycin-induced, 15-18 h; at 10 µM; active compounds read high
Hit rate of the full screen: of about 220,000 compounds, about 8,200 (3.7%) were called active. The entries come from a sample that favours actives as a whole.
property name: inhibition (%)
Just the number in %, nothing appended.

Ask: Look up inhibition: CN(C)S(=O)(=O)c1ccc(Cl)c(NC(=O)COC(=O)CC(NC(N)=O)c2ccc(Cl)cc2)c1 (stereo not given)
Result: -8.1

###

Test: blockers of ER-stress CHOP reporter expression – cell-based, unfolded protein response, luciferase reporter, primary screen (AID 2732);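 note: 0% = tunicamycin plus vehicle and 100% = wells without tunicamycin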
Conditions: CHO-K1 CHOP-promoter luciferase, tunicamycin-induced, 15-18 h; at 10 µM
Screen size: about 220,000 compounds; about 8,200 (3.7%) were called active.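 Rule for the calls: active = compounds that reduced the stress-induced luciferase reporter signal by more than about 70% of percent inhibition (limit read from the data); inactive = the rest.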 The entries come from a sample that favours actives as a whole.
Outcome field: choose from active, inactive

Worked examples, 5 compounds total:
Ask: Kindly provide the recorded test outcome for the following compound: O=C(CN1CCOCC1)N/N=C/c1ccc(-c2ccc(Br)cc2)o1
Result: inactive

Ask: Dear all, I need the recorded test outcome for CC1(C)C2CCC1(C)C(OC(=O)c1ccc(O)cc1)C2 (stereo not given) , thank you.
Result: active

Ask: Record request — test call for C=CCOc1ccc(/C=C2\SC(=S)N(CCC(=O)O)C2=O)cc1
Result: active

Ask: I'd appreciate the recorded outcome for O=C(CSc1nnc(Nc2ccccc2)s1)Nc1cccnc1Cl from this test.
Result: inactive

Ask: Test call for this compound, please: O=C(Nc1cccc2c1N(C(=O)c1ccco1)CCC2)c1ccco1
Result: inactive

New cases:
Ask: Any idea what this test logged for Cc1ccccc1NC(=O)NCc1ccco1 ?
Result: inactive

###

Assay: blockers of ER-stress CHOP reporter expression – cell-based, unfolded protein response, luciferase reporter, primary screen (AID 2732);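 note: 0% = tunicamycin plus vehicle and 100% = wells without tunicamycin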
Conditions: CHO-K1 CHOP-promoter luciferase, tunicamycin-induced, 15-18 h; at 10 µM
The whole screen tested about 220,000 compounds, of which about 8,200 (3.7%) were called active.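 Rule for the calls: active = compounds that reduced the stress-induced luciferase reporter signal by more than about 70% of percent inhibition (limit read from the data); inactive = the rest.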 Shown is part of a subset that was picked to be rich in actives.
Assign a class; possible classes are active, inactive

Ask: What did this assay record as the result for CCN(CC)CCNCC(=O)Nc1ccc(Oc2ccccc2)cc1 ?
Result: inactive

New cases:
Ask: I would be grateful if you could indicate the recorded call for COc1ccc2c(CC(=O)OCC(=O)NC(N)=O)coc2c1 .
Result: inactive

Ask: Please share the test call associated with COc1ccccc1C1C2=C(COC2=O)Nc2cc3c(cc21)OCO3 (stereo unspecified) .
Result: inactive

Ask: // param item: CC(C)(C)C(=O)Nc1c(Br)c(C2CC2)nn1-c1ccccc1 ; yields the recorded call
Result: inactive

Ask: Tell me the recorded outcome of this test for Cc1ccc(C2(c3ccc(C)cc3)NC(=O)N(Cc3c(C)noc3C)C2=O)cc1 .
Result: active

Ask: Tell me the assay call for Cc1noc(C)c1COc1ccc2ccc(=O)oc2c1 please.
Result: inactive

Ask: How was Oc1ccc(-c2nnc(Nc3ccccc3)c3ccccc23)cc1 classified in this test?
Result: inactive

Ask: Can you look up the reported call for COCCOC(=O)C1=C(C)NC(=O)CC1c1cc2c(cc1Br)OCO2 (stereo unspecified) for me?
Result: inactive

###

Each entry below carries its reported inhibition.
Test: blockers of ER-stress CHOP reporter expression – cell-based, unfolded protein response, luciferase reporter, primary screen (AID 2732);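 note: 0% = tunicamycin plus vehicle and 100% = wells without tunicamycin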
Settings: CHO-K1 CHOP-promoter luciferase, tunicamycin-induced, 15-18 h; at 10 µM; active compounds read high
Among all 220,000 compounds or so, about 8,200 (3.7%) were called active. The list comes from a sample in which actives are over-represented; it also holds close analogues and randomly drawn compounds.
Reply numerically in %, unit not repeated.

Example entries begin here.
Ask: May I ask what inhibition has been recorded for Nc1c(Cl)cc(S(N)(=O)=O)cc1S(N)(=O)=O ?
Result: 4.35

Ask: Name the recorded inhibition for C/C(=N\NC(=O)CC(C)C)c1c(C(F)(F)F)[nH]n(-c2nc3ccccc3s2)c1=O .
Result: -21.3

Ask: Reported inhibition for NC(=O)C1CCN(Cc2nc3c(Br)cc(Br)cc3c(=O)[nH]2)CC1 : what is it?
Result: 13.6

Ask: Given the molecule CS(=O)(=O)c1ccc(Cl)c(NC(=O)Nc2ccccc2)c1 , what is its reported inhibition?
Result: 2.73

Now for the molecule whose inhibition we want.
Ask: Given the molecule COc1ccc(NS(=O)(=O)c2ccc(N3CCOCC3)c(NC(=O)c3ccccc3Br)c2)cc1 , what is its reported inhibition?
Result: -3.53
